The reported measurements were obtained from patent US20030203915A1.

Below: a set of entries, each annotated with reported melting point.
recorded_metric: melting point

1) CC(C)(CNC(=O)C(C)(C)CCC(=O)O)SN=O [Example 27b] ... 93 to 96 °C
2) CC(C)(CNC(=O)CSCC(=O)O)SN=O ... 47 to 51 °C
3) CC(C)(C)C(CC#N)(SN=O)C(C)(C)C ... 92 to 93 °C
4) CSc1nccc(NCC(C)(C)SN=O)n1 [Example 18c] ... 77 to 79 °C
5) CC(C)(CNC(=O)CCCC(=O)O)SN=O [Example 19b] ... 104 to 107 °C
